Form field: composite z-score (one value per entry).
- assay_overview: binders of probe aHhip on microarray, primary screen, stem cell growth factor project, biochemical, small-molecule microarray, fluorescence 635/667 (AID 1087);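 also: score merges spot fluorescence at 667nm with spot signal to noise ratio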
- recorded_conditions: higher = more signal

*Q* Look up composite z-score: CCOC1=C2C(c3ccc(C)cc3)N(S(=O)(=O)c3ccc(C)cc3)CC2n2c(=O)n(-c3ccccc3)c(=O)n2C1 (stereo unspecified)
*A* -0.26

---

- Test system: wheat germ agglutinin (Triticum aestivum), Alexa647-labelled
- assay_overview: Alexa647-WGA lectin binding to printed small molecules – biochemical, small-molecule microarray, 635/667 nm fluorescence, artefact control for SMM control-protein annotation, profiling panel (AID 1140);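 also: score merges 667 nm feature emission with signal to noise over triplicate slides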
- recorded_conditions: WGA-A647 binding, 635 nm fluorescence, higher = more signal
Mark Condition met for reported composite z-score of 0.7 or greater; mark Condition not met for anything smaller.

molecule: CC(C)(C)OC(=O)CC[C@@]1(C(=O)N2CCOCC2)N=C(c2ccc(OCCCO)cc2)O[C@@H]1c1ccccc1N=[N+]=[N-]
qualitative_label: Condition met

molecule: O=C1C2C=CC(C(O)c3ccccn3)N(Nc3ccccc3F)C2C(=O)N1c1ccccc1 (configuration not stated)
qualitative_label: Condition not met

molecule: CCOC(=O)C=Cc1cccc(OC)c1O
qualitative_label: Condition met

*Q* Determine whether this molecule has composite z-score no lower than 0.7: CN1C(=O)C2C=CC(C(O)c3ccc(Br)cc3)N(Nc3ccccc3)C2C1=O (configuration not stated)
*A* Condition not met

*Q* Determine whether this molecule has composite z-score no lower than 0.7: `COCCOC(=O)N1C(=O)[C@@]2(c3cc(C#CC4(O)CCCCCC4)ccc31)[C@H](c1ccc(O)cc1)N1[C@H](c3ccccc3)[C@H](c3ccccc3)OC(=O)[C@H]1[C@@H]2C(=O)N1CCc2cc(OC)c(OC)cc2C1`
*A* Condition not met

*Q* Determine whether this molecule has composite z-score no lower than 0.7: C=CCC(OC(C)=O)[C@@H]1[C@@H](N(Cc2ccc(-c3cccc(C(F)(F)F)c3)o2)C(=O)Cc2ccc(OC)cc2)c2cc(OCCCO)ccc2N1C(=O)Cc1ccc(OC)cc1 (some centres not stated)
*A* Condition not met

*Q* Determine whether this molecule has composite z-score no lower than 0.7: `CC(C)(C)OC(=O)CC[C@@]1(C(N)=O)N=C(c2ccc(OCCCO)cc2)O[C@@H]1c1ccccc1N=[N+]=[N-]`
*A* Condition met
